Catalogue of MCC13_AUC values
Tested on: MCC13 cells (VN-MCC)
Assay: qHTS cell viability (CellTiter-Glo, 72 h; primary and follow-up small molecule screen)
Format: cell-based, human
Details: MIPE library, 11-point DRC, sheet S2E
Counter-ions that a name gives are not always drawn.
Just the number.

{"columns": ["Compound", "MCC13_AUC"],
 "data": [
  ["CN1CCCC(n2nc(Cc3ccc(Cl)cc3)c3ccccc3c2=O)CC1 (centres unmarked) [Azelastine hydrochloride]", 451.766],
  ["C=C1/C(=C\\C=C2/CCC[C@]3(C)[C@@H]([C@H](C)/C=C/[C@H](C)C(C)C)CC[C@@H]23)C[C@@H](O)C[C@@H]1O [1-alpha-Hydroxyergocalciferol]", 466.906],
  ["CC(C)(C)OC(=O)Nc1ccc(-c2cc(C(=O)NCCCCCCC(=O)NO)no2)cc1", 413.98],
  ["CC1=C(/C=C/C(C)=C/C=C/C(C)=C\\C(=O)O)C(C)(C)CCC1", 457.493]
]}

What value of MCC13_AUC has been recorded for this entry: "COc1ccc(C(=O)CC(=O)c2ccc(C(C)(C)C)cc2)cc1"
495.434

Data request, read-out MCC13_AUC, for CC(=O)O[C@]1(C(C)=O)CC[C@H]2[C@@H]3C=C(C)C4=CC(=O)CC[C@]4(C)[C@H]3CC[C@@]21C [Megestrol acetate]
479.341

Given the compound "CC1(C)CCC(c2ccc(Cl)cc2)=C(CN2CCN(c3ccc(C(=O)N[S+](=O)([O-])c4ccc(N[C@H](CCN5CCOCC5)CSc5ccccc5)c([S+](=O)([O-])C(F)(F)F)c4)cc3)CC2)C1" , what is its reported MCC13_AUC?
470.158

# lookup: MCC13_AUC of O=C(CCCCCCC(=O)Nc1cccnc1)NO [Pyroxamide]
454.868

Where do these numbers come from? They come from paper PMC11822212.
